- System: PXR:RXRa (NR concentration 270 nM, RXRa partner concentration 90 nM)
- EXPERIMENT_DESCRIPTION: PBM binding z-score (relative to random genomic background probes); higher = stronger binding; sequences stand for … in GC…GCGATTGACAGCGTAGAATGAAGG
PARAMETER_MEASURED: PBM binding z-score

Past entries and their recorded results:
CGTCCAAGGTCAGCAGGTGAGTGAAAGCGACGTG | 2.41
ACTCGGAGGACAAAGGTAAGAGCTACGCCAGTGA | -0.339
TCGAGTAGGTTACGGGGGCCTTCAGGGATGAAGA | 1.52

Provide reported PBM binding z-score for each item, in the same order as listed.
1. CCTCGGAGGACAACAGGAGGTCAAAGCTGCCAGA
2. AGTCAAATTTCATCTAGGTAACGTAAGATATGCT
3. ATATGTAGGTTAGGGTCATTTAGAAAGTAGGGAA
4. CGTCCAAGGTCATAAGAGGTCAGTGAAGACAGAT
5. AGTCAAAGTTCACTAGGCAACGTAAGATTCAGCT
6. TAGCCTAGGTCATGGGCCAGTTTACCACGCGAAC

1: 4.04; 2: -0.111; 3: 4.23; 4: 7.11; 5: 3.81; 6: 2.12

Provide reported PBM binding z-score for each item, in the same order as listed.
1. ATATGTAGGTTACGTCCGGGTCATTCAGGCTATG
2. CCAGAAAGGTGAAAGGTAACTCAGTCTGGTACGC
3. CAAACTAGGTCAAAGGTCAAACTCGAGCCAACCA
4. CCTACAGGGCCAAAGGTCATTGATTCCAATGCTC

3.87
2.26
7.03
5.66

Provide reported PBM binding z-score for each item, in the same order as listed.
1. AATACAGGGTGATCGTAGGCCAGAGTACGCACAG
2. CCTAGTAGGTTACGAGGGGGCATTCAGTGCGAAT
3. CGAACTAGGTCAACAGGACAGTGAAGAGGTTGGA
4. GCTGCTAGGTCAGGTTGGTCTGCTAACGGGTACG

0.0587
5.02
1.28
0.505

Provide reported PBM binding z-score for each item, in the same order as listed.
1. ATCTGTAGGTTAGGGTCATTCAGAAAGTAGGGAA
2. CCTTACGGGTCACTGACAGCTTATAGCATTTGGA
3. CAGAGTAGGTTACGAGGGGGCATTCAGTGCGAAT
4. CCTACTGGGCCACGAAAGGTAATTGATTCAGTGA
5. ACTAACAGGCCAAGGGTCACTCAAGATTAGTCCG
6. CGAACTAGGTCACCAGGACGGTGAAGAGGTTGGA

[4.42, 2.79, 4.86, -0.257, 3.56, 1.18]
